abundance fitness values for the variants below.
B1: Far upstream element-binding protein 1, residues 98 to 169; numbered along this chain, Q96AE4 (parent)
chain: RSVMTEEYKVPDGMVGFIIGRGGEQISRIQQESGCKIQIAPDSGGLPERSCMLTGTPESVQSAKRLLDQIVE

# Variants of: B1
# method: abundance fitness (aPCA) (normalised: wild type 0, dead -1); higher = more abundant; growth selection in yeast, the domain comes from the species named
# test-parameters: Homo sapiens
readout: abundance fitness

RSVMTFEYKVPDGMVGFIIGRGGEQISRIQQESGCKIQIAPDSGGLPERSCMLTGTPESVQSAKRLLDQIVE [E6F]: -0.081
RSVMTEEYKVPDGMVGFIIGRGGEQISRIQQESGCKIQIAPDSGGLPERSCMLTLTPESVQSAKRLLDQIVE [G55L]: -1.51
RSVMTEEYKVPDGMVGFIIGRGGEQISRTQQESGCKIQIAPDSGGLPERSCMLTGTPESVQSAKRLLDQIVE [I29T]: -0.211
RSVMTEEYKVPDGMVGFIIGRGGEQIKRIQQESGCKIQIAPDSGGLPERSCMLTGTPESVQSAKRLLDQIVE [S27K]: 0.036
RSVMTEEYEVPDGMVGFIIGRGGEQISRIQQESGCKIQIAPDSGGLPERSCMLTGTPESVQSAKRLLDQIVE [K9E]: -0.216
RSVMTEEYKVPDGMVGFIIGRGGEQISRIQQESGCKIQIAPDSGGLPERSCMLTGTPESVQSAARLLDQIVE [K64A]: -0.078
RSVMTEEYKVPDGMVGFIIGRGGEQISRIQQESGCKIQIAPDSGGLPERSCMLTGTPESVQSAKRLEDQIVE [L67E]: -0.54
RSVMTEEYKVPDGMVGFIIGRGGEVISRIQQESGCKIQIAPDSGGLPERSCMLTGTPESVQSAKRLLDQIVE [Q25V]: -0.07
RSVMTEEYKVPDGMVGFIIGRGGEQISRIQQESGCKIQIAPDSGGLPERSCMLTGTPESVQSAKRLHDQIVE [L67H]: -0.592
RSVMTEEYKVPDGMVGFIIGRGGEQISRIQQESGCKIQIAPDSYGLPERSCMLTGTPESVQSAKRLLDQIVE [G44Y]: -0.037
RSVMTEEYKVPDGMVGWIIGRGGEQISRIQQESGCKIQIAPDSGGLPERSCMLTGTPESVQSAKRLLDQIVE [F17W]: -0.007
RSVMTEEYKVPDGMVGFIIGRGGEQISRIQQESGCKIQIAPDSFGLPERSCMLTGTPESVQSAKRLLDQIVE [G44F]: -0.107
RSVMTYEYKVPDGMVGFIIGRGGEQISRIQQESGCKIQIAPDSGGLPERSCMLTGTPESVQSAKRLLDQIVE [E6Y]: -0.053
RSVMTEEYKVPDGMVGFIIGRGGEQISRIQQESGCKIQIAPDSGALPERSCMLTGTPESVQSAKRLLDQIVE [G45A]: -0.046
RSVMTEEYKVPDGMVGFIIGRGGEQISRIQQESGCKIQIAPDSGGRPERSCMLTGTPESVQSAKRLLDQIVE [L46R]: -0.006
RSVMTEEYKVPDGMVGFIIGRGWEQISRIQQESGCKIQIAPDSGGLPERSCMLTGTPESVQSAKRLLDQIVE [G23W]: -0.101
RSVMTEEYKVPDGMVGFIIGRGGEQISRIQQLSGCKIQIAPDSGGLPERSCMLTGTPESVQSAKRLLDQIVE [E32L]: -0.092
RSVMTEEYKVPDGMVGFIIGRGGEQISDIQQESGCKIQIAPDSGGLPERSCMLTGTPESVQSAKRLLDQIVE [R28D]: -0.016
RSVMTEEYKVPDGMVGFIIGRGGEQISRIQQESGCKIQIAPDSGMLPERSCMLTGTPESVQSAKRLLDQIVE [G45M]: -0.093
RSVMTEEYKVPDGMVGFIIGRGGEQISRIQQESGCKIQIAPDSGGLPERSGMLTGTPESVQSAKRLLDQIVE [C51G]: -0.417
RSVMTEEYKVPDGMVGFIIGRGGLQISRIQQESGCKIQIAPDSGGLPERSCMLTGTPESVQSAKRLLDQIVE [E24L]: -0.108
RSVMTEEYKVPDGMVGFIIGRGGEQISRIQQEIGCKIQIAPDSGGLPERSCMLTGTPESVQSAKRLLDQIVE [S33I]: -0.313
